Reported values of pIC50 for individual entries
molecular target: D(2) dopamine receptor (Rattus norvegicus); test: Concentration that produces 50 % displacement of specific [3H]spiroperidol binding to rat caudate membrane preparations.
Sequence (P61169 whole entry): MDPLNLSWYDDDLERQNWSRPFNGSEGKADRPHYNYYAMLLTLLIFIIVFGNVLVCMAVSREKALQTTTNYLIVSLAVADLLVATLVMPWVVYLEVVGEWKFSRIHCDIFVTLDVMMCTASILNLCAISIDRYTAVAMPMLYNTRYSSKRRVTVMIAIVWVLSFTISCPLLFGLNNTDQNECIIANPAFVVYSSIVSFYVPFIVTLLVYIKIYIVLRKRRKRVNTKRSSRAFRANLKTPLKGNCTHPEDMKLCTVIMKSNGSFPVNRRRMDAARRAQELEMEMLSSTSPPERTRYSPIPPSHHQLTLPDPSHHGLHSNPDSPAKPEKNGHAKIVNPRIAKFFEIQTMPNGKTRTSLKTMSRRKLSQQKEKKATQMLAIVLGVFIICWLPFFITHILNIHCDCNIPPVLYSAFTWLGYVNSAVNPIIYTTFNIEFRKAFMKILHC
Please note pIC50 is a logarithmic value: minus log10 of concentration in mol/L. Answer with that number alone.

compound	pIC50
CN1Cc2c(N)cccc2C(c2ccc(O)c(O)c2)C1 (stereo not drawn)	4.04
CN1Cc2c(N)cccc2[C@@H](c2ccc(O)c(O)c2)C1	4.00

Next:
Data point: `CN1Cc2c(N)cccc2[C@H](c2ccc(O)c(O)c2)C1` ; pIC50 = 4.07

###

experiment: Concentration that produces 50 % displacement of specific [3H]clonidine binding to Alpha adrenergic receptor in rat brain cortical membrane preparations.; format: cell membranes
property-label: IC50 (nM)
Report as a plain number; the unit nM is understood.

The cases that follow already have their IC50 on record.
compound	property-label	recorded-measurement
CN1Cc2c(N)cccc2C(c2ccc(O)c(O)c2)C1 (centres undefined)	IC50	1390
NCCc1ccc(O)c(O)c1	IC50	61
CN1Cc2c(N)cccc2[C@H](c2ccc(O)c(O)c2)C1	IC50	600

Next:
Data point: `CN1Cc2c(N)cccc2[C@@H](c2ccc(O)c(O)c2)C1` ; IC50 = 27700
